- SETTINGS: buffer; pH 7.4; 200.0 µM
ENDPOINT: solubility kinetic (µg/mL)
Numbers only, in µg/mL.

Here is how some compounds turned out for solubility kinetic.
* COc1ccc(-c2cc(-c3ccc(O)cc3)nc(N)c2C#N)cc1 | 0.8
* CC(c1ccccc1)C(CC(=O)O)C(=O)Nc1ccc(Cl)c(Cl)c1 (configuration not stated) | 46
* Nc1nc(NC2CCCCC2)nc(NCCO)c1[N+](=O)[O-] | 38.1
* C=CCN=C1SC(C)(C)C(=O)N1S(=O)(=O)c1ccc(C)cc1 | 45.6
* O=C(Nc1ccccc1Cl)C1CC(=O)N(c2ccccc2)C1 (configuration not stated) | 33.4

Kindly consider the entry below.
Exercise: // returns reported solubility kinetic for input CC1CN(C(=O)c2cc3cc(F)ccc3[nH]2)CC(C)O1 (configuration not stated)
Key: 32.2
